Origin of values: ChEMBL document CHEMBL1130936

- Target or test system: Serine protease 1 (Bos taurus, UniProt P00760)
- Sequence (P00760 whole entry): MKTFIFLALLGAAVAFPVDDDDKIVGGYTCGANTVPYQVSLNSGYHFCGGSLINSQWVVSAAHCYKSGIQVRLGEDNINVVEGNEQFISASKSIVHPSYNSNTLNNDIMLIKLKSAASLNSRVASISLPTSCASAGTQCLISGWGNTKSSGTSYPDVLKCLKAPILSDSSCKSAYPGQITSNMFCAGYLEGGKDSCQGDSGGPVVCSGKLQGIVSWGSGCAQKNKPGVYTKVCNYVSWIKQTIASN
Quantity kind: Ki (nM)

- N=C(N)c1ccc(/C=C2/CCCC/C(=C/c3ccc(C(=N)N)cc3)C2=O)cc1: 30
- CN(C)C(=O)c1cccc(Oc2nc(Oc3cc(C(=N)N)ccc3O)nc3c2NC(=O)CN3)c1: 2200
- Cc1nc2c(Oc3cccc(C(=O)N(C)C)c3)nc(Oc3cc(C(=N)N)ccc3O)nc2n1Cc1ccccc1: 760
